biological target: human GABA A receptor α5β3γ2 (α5 subunit) (Homo sapiens, UniProt P18507+P31644); assay: biochemical; assay type: binding; settings: competition for [3H]flumazenil binding, HEK293 cells transiently expressing human receptors; means of two determinations; read-out: hKi
Sequence (P31644 32-462): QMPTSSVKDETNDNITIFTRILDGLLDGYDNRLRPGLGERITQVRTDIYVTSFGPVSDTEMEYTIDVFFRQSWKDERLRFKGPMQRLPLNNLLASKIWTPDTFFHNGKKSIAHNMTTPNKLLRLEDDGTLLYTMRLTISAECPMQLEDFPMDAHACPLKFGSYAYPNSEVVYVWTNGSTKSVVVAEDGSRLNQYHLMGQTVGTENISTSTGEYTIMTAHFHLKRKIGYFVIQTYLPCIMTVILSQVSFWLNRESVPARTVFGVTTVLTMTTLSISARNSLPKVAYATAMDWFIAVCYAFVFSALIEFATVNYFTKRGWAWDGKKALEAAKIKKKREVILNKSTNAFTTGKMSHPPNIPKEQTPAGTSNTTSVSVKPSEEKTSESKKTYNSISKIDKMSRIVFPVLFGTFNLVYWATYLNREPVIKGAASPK
Sequence (P28472 26-473 partner): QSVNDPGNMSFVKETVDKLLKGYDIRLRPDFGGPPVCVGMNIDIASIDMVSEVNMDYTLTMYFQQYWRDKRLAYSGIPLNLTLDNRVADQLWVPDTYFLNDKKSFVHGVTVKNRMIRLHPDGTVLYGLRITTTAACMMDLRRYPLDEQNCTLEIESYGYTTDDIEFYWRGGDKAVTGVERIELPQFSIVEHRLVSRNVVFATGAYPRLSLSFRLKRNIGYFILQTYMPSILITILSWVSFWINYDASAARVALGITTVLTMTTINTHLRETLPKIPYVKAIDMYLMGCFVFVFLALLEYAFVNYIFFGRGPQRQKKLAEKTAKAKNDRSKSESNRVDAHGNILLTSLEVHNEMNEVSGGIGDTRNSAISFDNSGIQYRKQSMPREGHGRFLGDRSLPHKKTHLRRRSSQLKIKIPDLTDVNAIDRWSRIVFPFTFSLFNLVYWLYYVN
Sequence (P18507 40-475): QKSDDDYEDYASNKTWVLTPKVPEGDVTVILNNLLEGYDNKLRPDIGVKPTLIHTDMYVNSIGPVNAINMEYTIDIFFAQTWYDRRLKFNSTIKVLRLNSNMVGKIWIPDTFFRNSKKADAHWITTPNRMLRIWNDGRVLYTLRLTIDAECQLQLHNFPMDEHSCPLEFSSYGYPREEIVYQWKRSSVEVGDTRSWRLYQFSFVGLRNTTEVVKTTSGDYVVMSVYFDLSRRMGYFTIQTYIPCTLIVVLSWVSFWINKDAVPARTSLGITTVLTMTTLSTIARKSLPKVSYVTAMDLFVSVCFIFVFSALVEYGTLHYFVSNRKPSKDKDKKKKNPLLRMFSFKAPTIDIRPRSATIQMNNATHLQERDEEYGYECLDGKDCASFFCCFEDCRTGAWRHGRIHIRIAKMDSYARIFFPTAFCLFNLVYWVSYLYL
MEASURED_ENDPOINT: Ki (nM)
Give the quantity in nM, number only.

Complete the entry with Ki for "Cc1ccc(OCc2c(-c3ccccc3)noc2C)nn1" 6.2

Complete the entry with Ki for "Cc1onc(-c2ccccc2)c1COc1ccc2nncn2n1" 6.6

Complete the entry with Ki for "Cc1onc(-c2ccccc2)c1COc1ccc(NC(=O)c2ccco2)nn1" 6.9

Complete the entry with Ki for "Cc1onc(-c2ccc(F)cn2)c1COc1ccc(C(=O)NC(C)(C)CO)nn1" 1.5

Complete the entry with Ki for "Cc1cc(OCc2c(-c3ccccc3)noc2C)nnc1Cl" 2.3

Complete the entry with Ki for "Cc1onc(-c2ccccc2)c1COc1ccc(N2CCCC2=O)nn1" 4

Complete the entry with Ki for "Cc1cc(C)n(-c2ccc(OCc3c(-c4ccccc4)noc3C)nn2)n1" 5.1

Complete the entry with Ki for "CCOC(=O)c1cc(C)c(OCc2c(-c3ccccc3)noc2C)nn1" 2.2

Complete the entry with Ki for "Cc1onc(-c2ccc(F)cc2)c1COc1ccc(C(=O)NC2CC2)nn1" 1.7

Complete the entry with Ki for "Cc1onc(-c2cccc(F)c2)c1COc1ccc(C(=O)NC2CC2)nn1" 6.7

Complete the entry with Ki for "Cc1onc(-c2ccc(F)cc2)c1COc1ccc(Cl)nn1" 4.6
